assay target: CDK2 (Homo sapiens)
assay overview: CDK2 inhibition (IC50)
Type: biochemical
measure name: IC50 (µM)

Cc1ncc(-c2ccnc(Nc3ccc(C(=O)Nc4cc(-c5cccs5)ccc4N)cc3)n2)n1C(C)C [Example 3] ... 0.04

A. Cc1ncc(-c2ccnc(Nc3ccc(C(=O)Nc4cc(F)ccc4N)cc3)n2)n1C(C)C [Example 4]
B. Cc1cc(C(=O)Nc2cc(-c3ccc(F)cc3)ccc2N)sc1Nc1nccc(-c2cnc(C)n2C(C)C)n1 [Example 14]
[Q] Which of the two items, A and B , has the greater recorded IC50? Provide the label of your selected option as the answer.
[A] B
(B: 0.99 µM, A: 0.02 µM)
